Listing of entries alongside the reported Dmax (%) H1975 # 28 DTC.
# System: EGFR-Del19/T790M/C797S
# assayExplanation: EGFR degradation HTRF assay in H1975-clone #28 cells
# Assay type: cell-based
# assayContext: H1975-clone #28 (Del19/T790M/C797S) cells, 16 h treatment, maximum percentage of inhibition (degradation)
# number only, unit % dropped from output

Consider CCc1cc(Nc2ncc(Br)c(Nc3ccc4nc(C)c(F)cc4c3P(C)(C)=O)n2)c(OC)cc1N1CCC2(CCN(CC3CCN(c4cc5c(cc4F)C(=O)N(C4CCC(=O)NC4=O)C5=O)CC3)CC2)CC1 (centres unmarked) . Its measured Dmax (%) H1975 # 28 DTC is 73

// moving on: another record for Dmax (%) H1975 # 28 DTC
For record CCc1cc(Nc2ncc(Br)c(Nc3ccc4nc(C)c(F)cc4c3P(C)(C)=O)n2)c(OC)cc1N1CCC(N2CCN(C(=O)C3CN(c4ccc(F)c5c4n(C)c(=O)n5[C@H]4CCC(=O)NC4=O)C3)CC2)CC1 the listed Dmax (%) H1975 # 28 DTC is 87

====

# targetEntity: EGFR-L858R/T790M/C797S (Homo sapiens, UniProt P00533, C797S/L858R/T790M)
# Construct: expressed in transfected cells; host or cells: H1975-clone #25 (lentiviral over-expression, endogenous EGFR knocked out)
# Sequence (P00533 25-1210 T790M/C797S/L858R): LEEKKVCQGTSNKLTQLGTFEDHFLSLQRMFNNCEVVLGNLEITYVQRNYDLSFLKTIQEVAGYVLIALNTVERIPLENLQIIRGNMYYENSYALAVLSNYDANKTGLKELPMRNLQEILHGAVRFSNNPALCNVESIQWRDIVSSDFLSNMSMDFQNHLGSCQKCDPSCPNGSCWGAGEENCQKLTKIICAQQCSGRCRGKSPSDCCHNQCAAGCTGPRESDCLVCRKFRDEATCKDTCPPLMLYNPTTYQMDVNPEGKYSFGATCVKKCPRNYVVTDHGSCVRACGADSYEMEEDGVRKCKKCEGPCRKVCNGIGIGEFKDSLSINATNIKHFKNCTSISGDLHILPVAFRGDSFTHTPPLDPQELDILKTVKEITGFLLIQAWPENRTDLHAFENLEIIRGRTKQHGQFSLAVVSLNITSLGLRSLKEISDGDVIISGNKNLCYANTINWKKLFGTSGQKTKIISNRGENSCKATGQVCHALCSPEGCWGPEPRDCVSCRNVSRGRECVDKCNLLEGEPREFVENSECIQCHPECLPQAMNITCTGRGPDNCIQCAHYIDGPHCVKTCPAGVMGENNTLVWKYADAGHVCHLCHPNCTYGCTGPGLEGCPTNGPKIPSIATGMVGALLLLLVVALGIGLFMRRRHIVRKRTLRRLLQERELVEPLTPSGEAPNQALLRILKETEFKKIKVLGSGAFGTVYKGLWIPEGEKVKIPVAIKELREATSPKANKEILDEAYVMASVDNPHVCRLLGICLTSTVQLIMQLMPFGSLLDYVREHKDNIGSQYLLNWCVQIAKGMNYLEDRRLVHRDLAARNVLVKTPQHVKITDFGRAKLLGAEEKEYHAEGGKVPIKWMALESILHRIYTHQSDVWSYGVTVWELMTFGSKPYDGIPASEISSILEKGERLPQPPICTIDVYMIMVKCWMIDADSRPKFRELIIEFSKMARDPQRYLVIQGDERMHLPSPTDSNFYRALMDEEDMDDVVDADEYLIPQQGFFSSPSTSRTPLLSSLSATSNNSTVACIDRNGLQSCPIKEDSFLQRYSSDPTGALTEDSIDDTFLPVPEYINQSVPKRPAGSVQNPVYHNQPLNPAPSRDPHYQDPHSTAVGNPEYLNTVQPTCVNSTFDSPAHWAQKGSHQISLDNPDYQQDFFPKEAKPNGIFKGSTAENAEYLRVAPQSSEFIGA
# assayExplanation: EGFR degradation HTRF assay in H1975-clone #25 cells
# Format: cell-based
# assayContext: NCI-H1975, H1975-clone #25 (L858R/T790M/C797S) cells, 16 h treatment, maximum percentage of inhibition (degradation), read-out: Dmax (%) H1975 # 25-LTC
# Protocol: H1975-clone #28(Del19/T790M/C797S) and H1975-clone #25(L858R/T790M/C797S). EGFR-Del19/T790M/C797S and EGFR-L858R/T790M/C797S were stably expressed in H1975 cell lines by lentivirus-mediated over-expression, respectively. The EGFR over-expressed cells then underwent knockout, in which the EGFR targeting sgRNA was designed to only target the endogenous EGFR copies and preserve the exogenous EGFR copies. […] The inhibition (degradation) percentage of the compound was calculated by the following equation: […]
measurementKind: Dmax (%)
Quick note: give the figure in %, leave out the unit.

Some entries whose results are on file:
The reported value for CCc1ncc2c(P(C)(C)=O)c(Nc3nc(Nc4cc(CC)c(N5CCC(N6CCC7(CCN(c8cc(F)c([C@H]9CCC(=O)NC9=O)c(F)c8)CC7)CC6)CC5)cc4OC)ncc3Br)ccc2n1 (single isomer, unassigned) in terms of Dmax is 84

So for CCc1cc(Nc2ncc(Br)c(Nc3ccc4nc(C)c(F)cc4c3P(C)(C)=O)n2)c(OC)cc1N1CCC2(CC1)CCN(C1CCN(c3cccc4c3C(C)(C)C(=O)N4C3CCC(=O)NC3=O)CC1)CC2 (stereo not shown) , the logged Dmax turned out to be 90

Entry CCc1cc(Nc2ncc(Br)c(Nc3ccc4nc(C)c(F)cc4c3P(C)(C)=O)n2)c(OC)cc1N1CCC(N2CC3(CCN(c4cc(F)c([C@H]5CCC(=O)NC5=O)c(F)c4)CC3)C2)CC1 (single isomer, unassigned) ; Dmax = 92

Briefly, Dmax measured for CCc1cc(Nc2ncc(Br)c(Nc3ccc4nc(C)c(F)cc4c3P(C)(C)=O)n2)c(OC)cc1N1CCC2(CCN(CCc3cc(F)c([C@H]4CCC(=O)NC4=O)c(F)c3)CC2)CC1 : 89

Briefly, Dmax measured for CCc1ncc2c(P(C)(C)=O)c(Nc3nc(Nc4cc(CC)c(N5CCC(N6CCN(C7CN(c8cccc9c8n(C)c(=O)n9C8CCC(=O)NC8=O)C7)CC6)CC5)cc4OC)ncc3Br)ccc2n1 (stereo not shown) : 80

Entry CCOc1cc(N2CCC(N3CC(N4CCC(c5cc(F)c([C@H]6CCC(=O)NC6=O)c(F)c5)CC4)C3)CC2)c(CC)cc1Nc1ncc(Cl)c(Nc2ccc3nc(C)c(F)cc3c2P(C)(C)=O)n1 ; Dmax = 94

// field: Dmax; key: CCc1cc(Nc2ncc(Br)c(Nc3ccc4nc(C)c(F)cc4c3P(C)(C)=O)n2)c(OC)cc1N1CCC2(CCN(CC3CCN(c4cccc5c4C(=O)N(C4CCC(=O)NC4=O)C5=O)CC3)CC2)CC1 (stereo not shown) ; value = 86

Field Dmax (entry CCc1ccc2c(P(C)(C)=O)c(Nc3nc(Nc4cc(CC)c(N5CCC(N6CCC(N7CC(c8cccc9c8n(C)c(=O)n9C8CCC(=O)NC8=O)C7)CC6)CC5)cc4OC)ncc3Br)ccc2n1 (stereo not shown) ) reads 77

Others:
Entry CCc1cc(Nc2ncc(Cl)c(Nc3ccc4nc(C)c(F)cc4c3P(C)(C)=O)n2)c(OC)cc1N1CCC2(CC1)CCN(C1CCN(c3cc(F)c([C@H]4CCC(=O)NC4=O)c(F)c3)CC1)CC2 — recorded Dmax = 92

Form field Dmax, entry CCc1ncc2c(P(C)(C)=O)c(Nc3nc(Nc4cc(CC)c(N5CCC(N6CCN(CC7CCN(c8ccc9c(c8)CN(C8CCC(=O)NC8=O)C9=O)CC7)CC6)CC5)cc4OC)ncc3Br)ccc2n1 (stereo not shown) : 83

// field: Dmax; key: CCc1cc(Nc2ncc(Br)c(Nc3ccc4nc(C)c(F)cc4c3P(C)(C)=O)n2)c(OC)cc1N1CCC2(CCN(CC3CN(c4cc(F)c([C@H]5CCC(=O)NC5=O)c(F)c4)C3)CC2)CC1 ; value = 93

The reported value for CCc1ncc2c(P(C)(C)=O)c(Nc3nc(Nc4cc(CC)c(N5CCC(N6CC(N7CCC(c8cc(F)c([C@H]9CCC(=O)NC9=O)c(F)c8)CC7)C6)CC5)cc4OC)ncc3Br)ccc2n1 in terms of Dmax is 94

Reported Dmax for CCOc1cc(N2CCC(N3CCC4(CC3)CN(c3cc(F)c([C@H]5CCC(=O)NC5=O)c(F)c3)C4)CC2)c(CC)cc1Nc1ncc(Br)c(Nc2ccc3nc(CC)ncc3c2P(C)(C)=O)n1 (single isomer, unassigned) was 93

The compound identified as CCOc1cc(N2CCC(N3CC4(CCN(c5cccc6c5n(C)c(=O)n6C5CCC(=O)NC5=O)CC4)C3)CC2)c(CC)cc1Nc1ncc(Cl)c(Nc2ccc3nc(C)c(F)cc3c2P(C)(C)=O)n1 (stereo not shown) registered its Dmax at 81

Dmax measured on CCc1cc(Nc2ncc(Br)c(Nc3ccc4nc(C)c(F)cc4c3P(C)(C)=O)n2)c(OC)cc1N1CCC(N2CCC3(CCN(c4cc(F)c([C@H]5CCC(=O)NC5=O)c(F)c4)C3)C2)CC1 (stereo partly shown) = 87

Entry CCc1cc(Nc2ncc(Br)c(Nc3ccc4nc(C)c(F)cc4c3P(C)(C)=O)n2)c(OC)cc1N1CCC2(CCN(CC3CN(c4cccc5c4CN(C4CCC(=O)NC4=O)C5=O)C3)CC2)CC1 (stereo not shown) — recorded Dmax = 91

The compound CCc1ncc2c(P(C)(C)=O)c(Nc3nc(Nc4cc(CC)c(N5CCC6(CC5)CCN(C5CCN(c7cc(F)c([C@H]8CCC(=O)NC8=O)c(F)c7)CC5)CC6)cc4OC)ncc3Br)ccc2n1 showed Dmax equal to 95

Recorded result, CCc1cc(Nc2ncc(Br)c(Nc3ccc4nc(C)c(F)cc4c3P(C)(C)=O)n2)c(OC)cc1N1CCC2(CCN(CCN(C)c3cccc4c3CN(C3CCC(=O)NC3=O)C4=O)CC2)CC1 (stereo not shown) , Dmax: 89

The reported value for CCc1cc(Nc2ncc(Br)c(Nc3ccc4nc(C)c(F)cc4c3P(C)(C)=O)n2)c(OC)cc1N1CCC2(CC1)CCN(C1CCN(c3ccc4c(c3)C(=O)N(C3CCC(=O)NC3=O)C4=O)CC1)CC2 (stereo not shown) in terms of Dmax is 85

====

# targetEntity: EGFR-L858R/T790M/C797S (Homo sapiens, UniProt P00533, C797S/L858R/T790M)
# Construct: expressed in transfected cells; host or cells: H1975-clone #25 (lentiviral over-expression, endogenous EGFR knocked out)
# assayExplanation: EGFR degradation HTRF assay in H1975-clone #25 cells
# Format: cell-based
# assayContext: H1975-clone #25 (L858R/T790M/C797S) cells, 16 h treatment, IC50 (DC50), read-out: DC50(nM) H1975 # 25-LTC
With a cut-off of 2 nM, any DC50 strictly below it is called t; any DC50 meeting it or above is called f.

Consider the worked cases shown below.
Enquiry: Does the reported DC50 of the following molecule sit strictly below 2 nM? CCc1cc(Nc2ncc(Br)c(Nc3ccc4nc(C)c(F)cc4c3P(C)(C)=O)n2)c(OC)cc1N1CCC2(CC1)CN(C1CCN(c3cc(F)c([C@H]4CCC(=O)NC4=O)c(F)c3)CC1)C2 [Example 62]
Return: t

Enquiry: Take the molecule CCc1ncc2c(P(C)(C)=O)c(Nc3nc(Nc4cc(CC)c(N5CCC(N6CC7(CN(c8cccc9c8n(C)c(=O)n9C8CCC(=O)NC8=O)C7)C6)CC5)cc4OC)ncc3Br)ccc2n1 (stereo not shown) [Example 25] and say whether its DC50 is less than 2 nM.
Return: t

Enquiry: Is DC50 of CCc1cc(Nc2ncc(Br)c(Nc3ccc4nc(C)c(F)cc4c3P(C)(C)=O)n2)c(OC)cc1N1CCC2(CC1)CCN(C1CN(c3cc(F)c([C@H]4CCC(=O)NC4=O)c(F)c3)C1)CC2 [Example 38] strictly below 2 nM?
Return: f

Enquiry: Just wondering, is DC50 of CCc1cc(Nc2ncc(Br)c(Nc3ccc4nc(C)c(F)cc4c3P(C)(C)=O)n2)c(OC)cc1N1CCC2(CC1)CCN(C1CCN(c3cccc4c3n(C)c(=O)n4C3CCC(=O)NC3=O)CC1)CC2 (stereo not shown) [Example 51] below 2 nM?
Return: f

Enquiry: In plain terms, does CCc1ncc2c(P(C)(C)=O)c(Nc3nc(Nc4cc(CC)c(N5CCC6(CCN(CCc7cc(F)c([C@H]8CCC(=O)NC8=O)c(F)c7)CC6)CC5)cc4OC)ncc3Br)ccc2n1 [Example 40] come in under 2 nM for DC50?
Return: f

New cases:
Enquiry: Quick check: does CCc1cc(Nc2ncc(Br)c(Nc3ccc4nc(C)c(F)cc4c3P(C)(C)=O)n2)c(OC)cc1N1CCC(N2CC(CN3CCC(c4cc(F)c([C@H]5CCC(=O)NC5=O)c(F)c4)CC3)C2)CC1 [Example 56] have DC50 under 2 nM?
Return: f

Enquiry: Threshold test, DC50 < 2 nM: CCc1cc(Nc2ncc(Br)c(Nc3ccc4nc(C)c(F)cc4c3P(C)(C)=O)n2)c(OC)cc1N1CCC2(CCN(CC3CCN(c4cccc5c4C(=O)N(C4CCC(=O)NC4=O)C5=O)CC3)CC2)CC1 (stereo not shown) [Example 45]
Return: f

Enquiry: DC50 under 2 nM? Item: CCc1ncc2c(P(C)(C)=O)c(Nc3nc(Nc4cc(CC)c(N5CCC(N6CCN(C7CN(c8cc(F)c([C@H]9CCC(=O)NC9=O)c(F)c8)C7)CC6)CC5)cc4OC)ncc3Br)ccc2n1 (single isomer, unassigned) [Example 7]
Return: f

Enquiry: Is DC50 strictly under 2 nM for the entry CCc1ncc2c(P(C)(C)=O)c(Nc3nc(Nc4cc(C)c(N5CCC6(CCN(CCc7cc(F)c([C@H]8CCC(=O)NC8=O)c(F)c7)CC6)CC5)cc4OC)ncc3Cl)ccc2n1 [Example 42] ?
Return: f
